test system: Sunflower; test: Test C preemergence; assay type: in vivo; conditions: Rate 125 g/ha; scale 0 to 100, 0 no effect, 100 complete control

- compound: "CCC(C)c1ccn(C2CCN(c3cccc(OC)c3)C2=O)n1 (stereo not drawn)"
  Plant response rating, Sunflower: 0
- compound: "CC(C)Oc1cccc(N2CCC(n3ccc(C(C)C)n3)C2=O)c1 (stereo not drawn)"
  Plant response rating, Sunflower: 20
- compound: "CC(C)(C)c1ccn(C2CCN(c3cccc(I)c3)C2=O)n1 (stereo not drawn)"
  Plant response rating, Sunflower: 40
- compound: "CC(C)(C)c1ccn(C2CCN(c3cccc(OC(F)F)c3)C2=O)n1 (stereo not drawn)"
  Plant response rating, Sunflower: 20
- compound: "CCCC(C)c1ccn(C2OCN(c3cccc(OC(F)F)c3)C2=O)n1 (stereo not drawn)"
  Plant response rating, Sunflower: 20
- compound: "CCC(C)Oc1cccc(N2CCC(n3ccc(C(C)(C)C)n3)C2=O)c1 (stereo not drawn)"
  Plant response rating, Sunflower: 0
- compound: "CCCC(C)c1ccn(C2CCN(c3ccc(Cl)c(OC)c3)C2=O)n1 (stereo not drawn)"
  Plant response rating, Sunflower: 30
- compound: "CCC(C)c1ccn(C2CCN(c3ccc(F)c(C(F)(F)F)c3)C2=O)n1 (stereo not drawn)"
  Plant response rating, Sunflower: 0
- compound: "CC(C)OC(=O)c1cccc(N2CCC(n3ccc(C(C)(C)C)n3)C2=O)c1 (stereo not drawn)"
  Plant response rating, Sunflower: 0
